System: OVCAR-8 ovarian
experimentDescription: NCI tumour cell line growth inhibition, 48 h
recordedEndpoint: TGI

[[record]]
compound = "NC1(C(=O)O)CSSC1"
recordedendpoint = "TGI"
reportedmeasurement = "24.4 µM"

[[record]]
compound = "O=C1c2cc3c(cc2-c2c1c1cc(F)c(F)cc1c(=O)n2C[C@H](O)CO)OCO3"
recordedendpoint = "TGI"
reportedmeasurement = "> 100 µM"

[[record]]
compound = "CCOC(=O)c1cc(C(=O)O)c(=O)n2c1[nH]c1ccccc12"
recordedendpoint = "TGI"
reportedmeasurement = "> 100 µM"

[[record]]
compound = "COc1ccc2nc3cc(Cl)ccc3c(Nc3ccc(O)c(CN4CCCC4)c3)c2c1"
recordedendpoint = "TGI"
reportedmeasurement = "4.87 µM"

[[record]]
compound = "COc1ccc(C(=C2C(=O)OC(=O)C2=C(C)C)c2ccc(OC)cc2)cc1"
recordedendpoint = "TGI"
reportedmeasurement = "> 100 µM"


// next entry
Return the recorded TGI value; entry: NC(=O)c1ncn(C2OC(CO)C(O)C2O)c1NC(=S)NC(=O)c1ccccc1 (centres undefined) > 100 µM

---

Test system: LXFL 529 NSCLC
experimentDescription: NCI tumour cell line growth inhibition, 48 h
The following compounds are listed with their measured TGI values.

Answered examples (3):
[[record]]
compound = "O=C(O)C(CS)N=Cc1nc(-c2ccccc2)oc1O (centres undefined)"
assaytarget = "LXFL 529 NSCLC"
reportedmeasurement = "> 100 µM"

[[record]]
compound = "O=C(NOC(=O)c1ccc([N+](=O)[O-])cc1)c1ccc(Cl)cc1"
assaytarget = "LXFL 529 NSCLC"
reportedmeasurement = "> 100 µM"

[[record]]
compound = "BrC(Br)([P+](c1ccccc1)(c1ccccc1)c1ccccc1)[P+](c1ccccc1)(c1ccccc1)c1ccccc1"
assaytarget = "LXFL 529 NSCLC"
reportedmeasurement = "34.5 µM"


Now consider the entry below.
Find the measured TGI of OCCN(CCO)c1ncnc2c1sc(=S)n2-c1ccccc1 and report it. > 100 µM

---

Measured TGI of individual entries
Tested on: MDA-MB-435
experimentDescription: NCI tumour cell line growth inhibition, 48 h
Report the figure in µM without appending any unit label.

[[record]]
compound = "Cc1ccc2c(C(C[N+](=O)[O-])c3ccco3)c(-c3ccccc3)[nH]c2c1 (stereo unspecified)"
reportedmeasurement = 10.8

[[record]]
compound = "CC(C)c1ccc2c(c1)c(SC(C)(C)C)c(CC(C)(C)C(=O)O)n2Cc1ccc(Cl)cc1"
reportedmeasurement = 26.1

[[record]]
compound = "O=C1C2=C(Nc3cc([N+](=O)[O-])ccc3N2)OC1c1ccc(C2OC3=C(Nc4ccc([N+](=O)[O-])cc4N3)C2=O)cc1 (stereo unspecified)"
reportedmeasurement = 53.4

[[record]]
compound = "CC(=O)c1c(Nc2ccc(F)c(F)c2F)[nH]c2c(F)cc(F)cc2c1=O"
reportedmeasurement = 7.26

[[record]]
compound = "Clc1sc(Cl)c2c1[C@H](Br)C[C@@H]2Cl"
reportedmeasurement = 40.8

[[record]]
compound = "CCOC(=O)C(=Cc1c(-c2ccccc2)[nH]c2ccccc12)C(=O)OCC"
reportedmeasurement = 13.6


Please respond with reported TGI (system MDA-MB-435) for NCCNc1nc2ccccc2c2c(=O)c3cc(F)cc(Cl)c3sc12 . 3.22

---

Test system: KM12 colon
experimentDescription: NCI tumour cell line growth inhibition, 48 h
Catalogue of molecules with associated GI50

// solved cases for GI50 follow
[[record]]
substancesmiles = "NCCn1c2c(c3ccccc3c1=O)C(=O)c1ccccc1-2"
recordedendpoint = "GI50"
reportedmeasurement = "325 nM"

[[record]]
substancesmiles = "CC(=O)Nc1ccc2c(c1)CN1C(=O)c3ccccc3C1=N2"
recordedendpoint = "GI50"
reportedmeasurement = "> 100000 nM"


# return recorded GI50 for entry Cc1cc2c(-c3nc4ccccn4c3NC34CC5CC(CC(C5)C3)C4)c(O)c(O)cc2c(O)c1-c1c(C)cc2c(-c3nc4ccccn4c3NC34CC5CC(CC(C5)C3)C4)c(O)c(O)cc2c1O 110 nM

Respond only with GI50 recorded for CN1CCN(CCCOc2ccc3ncnc(Nc4ccc(Oc5cccc(F)c5)c(Cl)c4)c3c2)CC1 1810 nM

Give GI50 for the following molecule: COc1ccc(-c2nn(-c3cccc(Cl)c3)cc2/C=C2\C(=N)N(c3ccccc3)N=C2N)cc1 200 nM

Retrieve GI50 measured for COc1ccc(-c2nn3ncccc3c2-c2ccnc(Nc3cccc(C(F)(F)F)c3)n2)cc1 and print it. 9330 nM

Read off the recorded GI50 for NCCNc1nc2ccccc2c2c(=O)c3cc(F)cc(Cl)c3sc12 1730 nM

Give reported GI50 value for Cc1cc(Nc2cc(N3CCN(C)CC3)nc(C#Cc3ccccc3)n2)n[nH]1 350 nM

Given the molecule CCOC(=O)/N=c1\ssc(Cl)c1Cl , write its reported GI50. 16700 nM

---

Tested on: EKVX NSCLC
experimentDescription: NCI tumour cell line growth inhibition, 48 h
# TGI listing for each entry below

Worked examples, 8 compounds total:
[[record]]
compound = "CC(C)(C)OC(=O)n1c(Cl)c(C(=O)N=C=S)c2ccccc21"
reportedmeasurement = "98.7 µM"

[[record]]
compound = "Cc1cccc2c(N)c3cccc(C(=O)NCC[N+](C)(C)[O-])c3nc12"
reportedmeasurement = "87.4 µM"

[[record]]
compound = "O=c1n(CCCN2CCOCC2)nc2n1-c1ccc3ccccc3c1SC2"
reportedmeasurement = "> 100 µM"

[[record]]
compound = "Cc1cc(Nc2cc(N3CCN(C)CC3)nc(C#Cc3ccccc3)n2)n[nH]1"
reportedmeasurement = "23.4 µM"

[[record]]
compound = "Nc1nc(Cl)cc(NCCCCCCNc2cc(Cl)nc(N)n2)n1"
reportedmeasurement = "> 100 µM"

[[record]]
compound = "CN(C)CN1C(=O)/C(=N\\n2c(-c3ccncc3)n[nH]c2=S)c2ccccc21"
reportedmeasurement = "> 100 µM"

[[record]]
compound = "CC(=O)Oc1ccc2c(c1)O/C(=C\\c1ccc(O)cc1)C2=O"
reportedmeasurement = "> 100 µM"

[[record]]
compound = "C[N+]1(CCCCN2c3ccccc3Sc3cc(N=[N+]=[N-])ccc32)CCN(C(=O)CCNC(=O)Cc2ccc(C(=O)c3ccccc3)cc2)CC1"
reportedmeasurement = "> 81.5 µM"


State its TGI for this compound: C=CCN(c1cc(OC)c2[nH]c(C(=O)O)c(C)c2c1[N+](=O)[O-])S(C)(=O)=O > 100 µM

Please look at this compound and report its TGI: CC1=NN(c2cccc(Cl)c2)C2(C1=Cc1ccc(N(C)C)cc1)C(Cl)C(=O)N2c1nc2ccccc2s1 (stereo not given) > 100 µM

---

System: UACC-62 melanoma
experimentDescription: NCI tumour cell line growth inhibition, 48 h; in the data active = GI50 below about 0.43 µM; inactive = the rest
Entry note: the call must match one of active, inactive

[[record]]
molecule = "COc1ccc(-c2nn3ncccc3c2-c2ccnc(Nc3cccc(C(F)(F)F)c3)n2)cc1"
category = "inactive"

[[record]]
molecule = "CCc1ccc(OCc2ccccc2C(=O)Nc2ccc3nc(C)cc(N)c3c2)cc1"
category = "inactive"

[[record]]
molecule = "C=C1C(=O)C23CC1CCC2C12CO[C@@]3(O)[C@@H](O)C1C(C)(C)C=CC2=O (stereo not given in full)"
category = "inactive"


For CC(C)c1ccc2c(c1)c(SC(C)(C)C)c(CC(C)(C)C(=O)O)n2Cc1ccc(Cl)cc1 , which call appears in the assay record? inactive

I'd appreciate the recorded outcome for CNc1ccc(N=Nc2cccc3ncccc23)cc1 from this test. inactive

// param item: O=C1C2=C(Nc3cc([N+](=O)[O-])ccc3N2)OC1c1ccc(C2OC3=C(Nc4ccc([N+](=O)[O-])cc4N3)C2=O)cc1 (stereo not given) ; yields the recorded call inactive

Called result for CC(=O)Nc1ccc2c(c1)CN1C(=O)c3ccccc3C1=N2 inactive

Please let me know the test result on file for N#CC1=C(N)Oc2c(sc3c(Br)cccc23)C1c1ccc(F)cc1 (stereo not given) . inactive

Which outcome was entered for the molecule NC(=O)c1c(NC(=O)c2cccc(C(F)(F)F)c2)sc2c1CCC(=O)C2 in this test? active

For CCOC(=O)C(=Cc1c(-c2ccccc2)[nH]c2ccccc12)C(=O)OCC , what call appears in the results of this test? inactive

---

Tested on: 786-0 renal
experimentDescription: NCI tumour cell line growth inhibition, 48 h
recordedEndpoint: TGI

Check out these entries, answers already filled in.
[[record]]
molecule = "CCOC(=O)c1cc(C(=O)O)c(=O)n2c1[nH]c1ccccc12"
reportedmeasurement = "> 100 µM"

[[record]]
molecule = "c1cc2ccc1C1NCCCN1CCN1CCCNC1c1ccc(cc1)C1NCCCN1CCN1CCCNC21 (configuration not stated)"
reportedmeasurement = "> 100 µM"


Please respond with reported TGI (system 786-0 renal) for C(/C=C/N1CCCC1)=C\c1nc(N2CCCC2)c2ccccc2n1 . 30.4 µM

Find TGI for Cc1cc(Nc2cc(N3CCN(C)CC3)nc(C#Cc3ccccc3)n2)n[nH]1 on 786-0 renal and write it down. 14.2 µM

Report TGI under test system 786-0 renal for Cc1cc([C@H](C)Nc2nccc(N3C(=O)OC[C@@H]3[C@H](C)F)n2)ncc1-c1ccnc(C(F)(F)F)c1 . > 100 µM

Quote TGI with test system 786-0 renal for O=c1n(CCCN2CCOCC2)nc2n1-c1ccc3ccccc3c1SC2 38.3 µM

Find the measured TGI of CCC1(c2ccc(OC)c(OC)c2)CCN2C(=O)C(O)CC21 (configuration not stated) with 786-0 renal as test system. > 100 µM

Look up and report measured TGI (786-0 renal) for the following molecule: N#CC1=C(N)NC(=S)C(C#N)C12Nc1ccccc1S2 (configuration not stated) 68.9 µM
